The origin of these recorded values is patent US12421249B2.

Study Target: APOL1 (Homo sapiens)
Run Description: Multi-Tox Assay (MultiTox-Fluor Multiplex Cytotoxicity Assay in tet-inducible APOL1 T-REx-HEK293 cells; Table 46 does not say which APOL1 variant G0/G1/G2)
Experimental Setup: IP50 = IC50 for cell proliferation, APOL1 variant not given
pIC50: −log10 of the molar value.
Parameter Measured: pIC50

So what does the record say about pIC50 for C[C@@H](CO)CCn1cc([C@@H]2CC3(C[C@H](C)N2)OCC(F)(F)c2cc(Cl)sc23)nn1 (stereo in doubt) ?
> 7.30

I am curious: what pIC50 value has been reported for C#C[C@@H]1C[C@]2(C[C@H](C)N1)OCCc1cc(Cl)sc12 ?
> 7.30

# lookup: pIC50 of C[C@H]1C[C@@]2(C[C@@H](c3ncccc3O)N1)OCCc1cc(Cl)sc12 (racemic)
< 6.30

For the compound C[C@H]1C[C@@]2(C[C@@H](c3cnc4c(cnn4C)c3)N1)OCCc1cc(Cl)sc12 (racemic) , what pIC50 is on record?
> 7.30

Which pIC50 reading was recorded for the compound CC1CC2(CC(C)N1)OCCc1cc(Cl)sc12 (mixture of isomers) ?
6.30 to 7.30

# pIC50 lookup, item C[C@H]1C[C@@]2(C[C@@H](c3cn(CC4(F)CCOCC4)nn3)N1)OCC(F)(F)c1cc(Cl)sc12
< 6.30

Quick one: pIC50 for Clc1cc2c(s1)C1(C[C@@H](C3CC3)N[C@@H](C3CC3)C1)OCC2 (single isomer, unassigned) ?
> 7.30

----------
Study Target: APOL1 G1 (Homo sapiens, UniProt O14791, I384M/S342G)
Sequence (O14791 28-398 S342G/I384M): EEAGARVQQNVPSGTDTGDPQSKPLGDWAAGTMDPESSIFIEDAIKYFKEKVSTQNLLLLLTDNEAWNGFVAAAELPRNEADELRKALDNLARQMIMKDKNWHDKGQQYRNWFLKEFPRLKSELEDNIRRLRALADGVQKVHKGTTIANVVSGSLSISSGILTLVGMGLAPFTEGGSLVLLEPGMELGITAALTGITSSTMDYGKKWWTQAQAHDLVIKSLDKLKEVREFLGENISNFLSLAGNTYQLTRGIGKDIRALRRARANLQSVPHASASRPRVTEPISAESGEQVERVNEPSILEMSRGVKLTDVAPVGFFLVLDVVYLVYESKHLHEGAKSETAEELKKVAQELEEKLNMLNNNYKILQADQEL
Run Description: Trypanosoma brucei brucei Lysis Assay Using APOL1 Recombinant Protein (AlamarBlue viability readout)
Assay type: cell-based
Experimental Setup: Trypanosome Assay; IP50 = IC50 for cell proliferation; read-out: Trypanosome Assay IP50
Could you please report measured IC50 for the items listed next?

Param item = C[C@H]1C[C@@]2(C[C@@H](c3ccc[nH]c3=O)N1)OCCc1cc(Cl)sc12 (racemic) ; retrieve measured IC50.
50 to 500 nM

Need IC50, item C[C@H]1C[C@@]2(C[C@@H](c3cnn4c3OCCC4)N1)OCCc1cc(Cl)sc12 (racemic)
> 500 nM

Form field: reported IC50 of C[C@H]1C[C@@]2(C[C@@H](C3CC3)N1)OCC(O)c1cc(Cl)sc12 (stereo partly shown)
< 50 nM

I have this molecule here, COc1ccc2[nH]c([C@@H]3C[C@]4(C[C@H](C)N3)OCCc3cc(Cl)sc34)cc2n1 (racemic) , and I need its recorded IC50.
< 50 nM

Endpoint output: IC50 of C[C@H]1C[C@@]2(C[C@@H](c3cccc(S(C)(=O)=O)c3)N1)OCCc1cc(Cl)sc12 (racemic) . Value?
50 to 500 nM

Entry Cc1ccc([C@@H]2C[C@]3(C[C@H](C)N2)OCCc2cc(Cl)sc23)nc1 (racemic) : reported IC50 = ?
< 50 nM

Would you mind telling me what IC50 value was observed for CC1CC2(CC(c3cn(CC4CC4)nn3)N1)OCCc1cc(Cl)sc12 (stereo not shown) ?
50 to 500 nM

----------
Study Target: APOL1 (Homo sapiens, UniProt O14791)
Sequence (O14791 whole entry S342G/I384M, form open): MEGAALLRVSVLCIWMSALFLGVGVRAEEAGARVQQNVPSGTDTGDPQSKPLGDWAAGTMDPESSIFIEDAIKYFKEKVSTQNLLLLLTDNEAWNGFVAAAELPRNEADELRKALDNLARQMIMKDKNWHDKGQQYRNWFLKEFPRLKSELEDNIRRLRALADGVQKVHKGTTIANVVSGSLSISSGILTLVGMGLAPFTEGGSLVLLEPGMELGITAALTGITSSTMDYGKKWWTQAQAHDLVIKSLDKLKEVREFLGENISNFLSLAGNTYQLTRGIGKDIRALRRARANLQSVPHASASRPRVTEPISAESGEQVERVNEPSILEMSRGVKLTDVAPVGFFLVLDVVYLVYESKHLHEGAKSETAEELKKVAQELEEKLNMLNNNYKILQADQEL
Run Description: Multi-Tox Assay (MultiTox-Fluor Multiplex Cytotoxicity Assay in tet-inducible APOL1 T-REx-HEK293 cells; Table 46 does not say which APOL1 variant G0/G1/G2)
Format: cell-based
Experimental Setup: APOL1 variant not given
Hi there, I'd appreciate the recorded Multi-Tox Assay Max Activity (%) for every entry that follows.
Supply the numeric figure in %, leaving out any unit text.

Find the recorded Multi-Tox Assay Max Activity (%) belonging to COc1ccc(Cn2cc([C@@H]3C[C@]4(C[C@H](C)N3)OC[C@@H](O)c3cc(Cl)sc34)nn2)cc1F [Compound 245] and report it.
99.0

Requested field: Multi-Tox Assay Max Activity (%). Item: COc1ccc(Cn2cc([C@@H]3C[C@]4(C[C@H](C)N3)OCC(F)(F)c3cc(Cl)sc34)nn2)cc1 [Compound 335]
96.0

So what does the record say about Multi-Tox Assay Max Activity (%) for C[C@H]1C[C@@]2(C[C@@H](c3cnc(N4CCN(C)CC4)nc3)N1)OCCc1cc(Cl)sc12 (racemic) [Compound 129] ?
100.0

GET /values?readout=Multi-Tox Assay Max Activity (%)&item= Cc1cc(Cn2cc([C@@H]3C[C@]4(C[C@H](C)N3)OCC(F)(F)c3cc(Cl)sc34)nn2)ccn1 [Compound 336]
99.0

Given the entry Cc1nc([C@@H]2C[C@]3(C[C@H](C)N2)OCCc2cc(Cl)sc23)co1 (racemic) [Compound 104] , report its measured Multi-Tox Assay Max Activity (%).
99.3

# query: Multi-Tox Assay Max Activity (%) of entry CCc1cc2c(s1)CCO[C@@]21C[C@@H](c2cnn(CCS(C)(=O)=O)c2)N[C@@H](C)C1 (stereo in doubt) [Compound 5]
100.0

Requested field: Multi-Tox Assay Max Activity (%). Item: Cc1cc(C2CC3(CC(C)N2)OCCc2cc(Cl)sc23)ncn1 (stereo not shown) [Compound 43]
100.0

Which measured Multi-Tox Assay Max Activity (%) value corresponds to C[C@H]1C[C@@]2(C[C@@H](c3cn(CCCS(C)(=O)=O)nn3)N1)OC[C@@H](O)c1cc(Cl)sc12 [Compound 228] ?
100.0

Could you tell me which Multi-Tox Assay Max Activity (%) is on file for C[C@H]1C[C@@]2(C[C@@H](c3cc4n(n3)CCCO4)N1)OCCc1cc(Cl)sc12 (racemic) [Compound 131] ?
99.3

What does the data say about its Multi-Tox Assay Max Activity (%)? Entry: C[C@H]1C[C@@]2(C[C@@H](c3cn(Cc4ncc(F)cc4F)nn3)N1)OC[C@@H](O)c1cc(Cl)sc12 [Compound 298]
95.0

Find the recorded Multi-Tox Assay Max Activity (%) belonging to C[C@H]1C[C@@]2(C[C@@H](c3cn(Cc4ccccn4)nn3)N1)OCC(F)(F)c1cc(Cl)sc12 [Compound 332] and report it.
96.0

Can you share its Multi-Tox Assay Max Activity (%)? I mean this compound: COCCn1cc([C@@H]2C[C@]3(C[C@H](C)N2)OC[C@@H](O)c2cc(Cl)sc23)nn1 [Compound 282]
99.0

Query: Multi-Tox Assay Max Activity (%); subject: C[C@H]1C[C@@]2(C[C@@H](c3cn(CC4(O)CC4)nn3)N1)OC[C@@H](O)c1cc(Cl)sc12 [Compound 233]
100.0

Could you share which Multi-Tox Assay Max Activity (%) value was measured for C[C@H]1C[C@@]2(C[C@@H](c3cn(CC(=O)N4CCCCC4)nn3)N1)OC[C@@H](O)c1cc(Cl)sc12 [Compound 239] ?
97.0

If you can, please state the reported Multi-Tox Assay Max Activity (%) value of COc1cc(F)cc(Cn2cc([C@@H]3C[C@]4(C[C@H](C)N3)OCC(F)(F)c3cc(Cl)sc34)nn2)c1 [Compound 333] .
97.0

Please give the measured Multi-Tox Assay Max Activity (%) for this compound: C[C@H]1C[C@@]2(C[C@@H](c3cccn4ccnc34)N1)OCCc1cc(Cl)sc12 (stereo in doubt) [Compound 143]
98.0

Name the recorded Multi-Tox Assay Max Activity (%) for C[C@H]1C[C@@]2(C[C@@H](c3ccc4oc(=O)n(C)c4c3)N1)OCCc1cc(Cl)sc12 (racemic) [Compound 28] .
100.0

Requested read-out: Multi-Tox Assay Max Activity (%). Entry: Cc1ccc([C@@H]2C[C@]3(C[C@H](C)N2)OCCc2cc(Cl)sc23)nn1 (racemic) [Compound 58]
99.7

Fill in: Multi-Tox Assay Max Activity (%) of CCn1cc(Cn2cc([C@@H]3C[C@]4(C[C@H](C)N3)OCC(F)(F)c3cc(Cl)sc34)nn2)cn1 [Compound 330] is ___
99.0

Given the compound C[C@H]1C[C@@]2(C[C@@H](c3cn(Cc4ccc(C#N)nc4)nn3)N1)OC[C@@H](O)c1cc(Cl)sc12 [Compound 236] , what is its reported Multi-Tox Assay Max Activity (%)?
100.0

Item under review: Cc1cc([C@@H]2C[C@]3(C[C@H](C)N2)OCCc2cc(Cl)sc23)no1 (racemic) [Compound 29] . Reported Multi-Tox Assay Max Activity (%)?
100.0

I would be grateful if you could share the reported Multi-Tox Assay Max Activity (%) for Cc1ccnc([C@@H]2C[C@]3(C[C@H](C)N2)OCCc2cc(Cl)sc23)c1 (racemic) [Compound 139] .
98.0

Report Multi-Tox Assay Max Activity (%) for C[C@H]1C[C@@]2(C[C@@H](c3cn(Cc4cocn4)nn3)N1)OCC(F)(F)c1cc(Cl)sc12 [Compound 331] please.
98.0

Item COc1cccc(Cn2cc([C@@H]3C[C@]4(C[C@H](C)N3)OCC(F)(F)c3cc(Cl)sc34)nn2)c1 [Compound 319] has what recorded Multi-Tox Assay Max Activity (%)?
95.0

Reported Multi-Tox Assay Max Activity (%) for Cc1nccn1CCCn1cc([C@@H]2C[C@]3(C[C@H](C)N2)OC[C@@H](O)c2cc(Cl)sc23)nn1 [Compound 251] : what is it?
99.0

// query Multi-Tox Assay Max Activity (%) value for entry COc1ccc(Cn2cc([C@@H]3C[C@]4(C[C@H](C)N3)OCC(F)(F)c3cc(Cl)sc34)nn2)cn1 [Compound 360]
99.0

What measured Multi-Tox Assay Max Activity (%) goes with Cc1noc(C)c1Cn1cc([C@@H]2C[C@]3(C[C@H](C)N2)OC[C@@H](O)c2cc(Cl)sc23)nn1 [Compound 237] ?
99.0

Quick one: Multi-Tox Assay Max Activity (%) for C[C@H]1C[C@@]2(C[C@@H](c3cccc(C(N)=O)c3)N1)OCCc1cc(Cl)sc12 (racemic) [Compound 109] ?
100.0
